# systemName: T1, KGF (hKGF) (Homo sapiens, UniProt P21781 P21781:32-194)
# T1 sequence: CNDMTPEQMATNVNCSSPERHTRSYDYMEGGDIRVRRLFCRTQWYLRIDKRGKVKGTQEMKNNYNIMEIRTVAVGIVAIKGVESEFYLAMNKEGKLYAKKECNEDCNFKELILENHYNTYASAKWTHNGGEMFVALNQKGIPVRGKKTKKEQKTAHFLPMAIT
# assayOverview: filter; DPBS, 37 C
# experimentalParameters: tags: Upstate Biotechnology; label: 32P
Consider the cut-off 1 nM. If the recorded Kd is strictly smaller, the label is 1; if not, the label is -1.

Exercise: Given 9F (ssRNA, 2'-F pyrimidines) RNA: GGGAGGACGAUGCGGAUAAUGGCUAGAACUAGCUCGCAUCUUGGUGUCCGGUGCCCAGACGACUCGCCCGA , is recorded Kd strictly lower than 1 nM?
Solution: 1

Exercise: Problem: For the binder 24F (ssRNA, 2'-F pyrimidines) RNA: GGGAGGACGAUGCGGUGGUCUCCCUAGAUCUACAGCACUUCCAUCGCAUUGGGCCAGACGACUCGCCCGA , is Kd under 1 nM?
Solution: -1

Exercise: Is 1 nM strictly greater than the binder's reported Kd? binder: 43N (ssRNA, 2'-NH2 pyrimidines) RNA: GGGAGGACGAUGCGGGAAGUGGAUAGAACAGUCAGAAAUGUAAGCGUGAGGUGCAGACGACUCGCCCGA
Solution: 1

Exercise: Please check: Kd for 24N (ssRNA, 2'-NH2 pyrimidines) RNA: GGGAGGACGAUGCGGGUGGGAAGAUGAGCCGGUCGGCAGUAAUGUGACACUGCGGCAGACGACUCGCCCGA , strictly under 1 nM or not?
Solution: -1

Exercise: Below 1 nM on Kd? Entry 2F (ssRNA, 2'-F pyrimidines) RNA: GGGAGGACGAUGCGGGCAUUCGUCAAUACCUUGUUUUAUUCCUUUUCUAGCGGCCCAGACGACUCGCCCGA
Solution: -1
